# System: BT-549
# assay.summary: NCI tumour cell line growth inhibition, 48 h
Calls of active or inactive are those of the source. Cut-off read from the data, not from the text of the source: active = GI50 up to about 1.1 µM and inactive = higher.
Labels: T (active), F (inactive)

# compound, answer.label
rows = [
    ("COc1cc(/C=C/C(=O)Oc2ccc(NC(C)=O)cc2)ccc1C(=O)OCc1ccccc1", "F"),
    ("O=c1c(-c2ccccc2F)coc2cc(F)ccc12", "F"),
    ("CC(=S)N/C=C1/C(=O)C=C(C)OC1=O", "F"),
    ("CN1CCCC(C(=O)OCC(=O)C2(O)CCC3C4CCC5=CC(=O)CCC5(C)C4C(O)CC32C)C1 (stereo unspecified)", "F"),
    ("O=C1N=C(Nc2ccccc2Cl)N/C1=C\\c1ccc(Cl)cc1Cl", "F"),
    ("C/C=C1\\CN(C(=O)OC(C)(C)C)C1C(=O)OC(C)(C)C (stereo unspecified)", "F"),
    ("O=C(Cc1csc2[n+]1C(=O)/C(=C/c1ccc(Cl)cc1)S2)Nc1ccccc1", "F"),
    ("Fc1ccccc1C1SCc2nc3cc4ccccc4cc3n21 (stereo unspecified)", "F"),
    ("CC1C2CC(CC2N)C1(C)C (stereo unspecified)", "F"),
    ("CCN(CCN(CC)C(=O)NC)C(=O)NC", "F"),
    ("Nc1nc(=S)[nH]c2nc3c(c(-c4ccccc4)c12)CCCC3", "F"),
    ("O=C1C(c2c(O)[nH]c3ccc([N+](=O)[O-])cc23)=Nc2ccccc21", "F"),
    ("CC(=O)OCC1OC(n2c3c(cc(C#N)c2=S)CCCCCC3)C(OC(C)=O)C(OC(C)=O)C1OC(C)=O (stereo unspecified)", "F"),
    ("CCN(CC)CCCNC(=O)c1cc2cc(NC(=O)c3cc4cc([N+](=O)[O-])ccc4[nH]3)ccc2[nH]1", "F"),
    ("CC[C@@]1(O)C(=O)OCc2c1cc1n(c2=O)Cc2c-1nc1ccccc1c2/C=N\\NC(=O)C(N)=O", "F"),
    ("c1ccc2nc3c(nc2c1)sc1nc2ccccc2n13", "F"),
    ("Cc1oc(N)c(S(=O)(=O)c2cc3ccccc3[n+]([O-])c2N)c1C", "F"),
    ("c1ccc(C2C(=P(c3ccccc3)(c3ccccc3)c3ccccc3)P=PC2[P+](c2ccccc2)(c2ccccc2)c2ccccc2)cc1.c1ccc([B-](c2ccccc2)(c2ccccc2)c2ccccc2)cc1 (stereo unspecified)", "T"),
    ("COC(=O)c1c(O)ccc2[nH]c3c(O)c4ccccc4cc3c12", "F"),
    ("O=C1NC(=O)C(CCC(=O)c2cccc3ccccc23)C(=O)N1", "F"),
    ("C=CC(Br)(CBr)CCC(Cl)C(C)C (stereo unspecified)", "F"),
    ("C/C=C1/C[C@@H](C)[C@@](C)(O)C(=O)OCC2=CC[N+]3([O-])CC[C@@H](OC1=O)[C@@H]23 (stereo partly specified) [SENECIONINE N-OXIDE]", "F"),
    ("NCCCNC1(c2cc3ccccc3s2)CCCCC1", "F"),
    ("CC(=N\\N)/C(C)=N/N=C(C)/C(C)=N/N", "F"),
    ("O=c1cccc2n1C[C@H]1CNC[C@H]2C1", "F"),
    ("COc1cc(/C=N/n2c(-c3ccccc3)n[nH]c2=O)cc(OC)c1OC", "F"),
    ("CCCCCCCCCCCCC(O)C1CCC(C(O)CCCCC(O)CCCCCC2CC(CC(C)=O)C(=O)O2)O1 (stereo unspecified)", "F"),
    ("O=C(NCCNCCCNC(=O)c1cc(-c2ccccc2)nc2ccccc12)c1cccc(OCc2ccccc2)c1OCc1ccccc1", "F"),
    ("COc1ccccc1NCC(=O)Nn1c(C)nc2ccc(S(=O)(=O)Nc3ccccc3OC)cc2c1=O", "F"),
    ("COc1ccc2c(c1)CCCc1c-2nc2ccccc2c1N", "F"),
    ("COC1/C=C/C(C)C(C(C)C(OC)C(C)CCC(=O)C(C)C(C/C=C/N(C)C=O)OC)OC(=O)C=CC2OC2(C)CC(OC)C(OC)C2=CC(=O)O[C@@H](C(C)C(OC)CC(OC)/C=C/C(C)C(O)C1)[C@H]2O (stereo partly specified)", "T"),
    ("O=Cc1ccc(-c2ccc(-c3ccc(CO)s3)o2)s1", "F"),
    ("O=C(NCCNCCNC(=O)c1cc(-c2ccccc2)nc2ccccc12)c1cc(-c2ccccc2)nc2ccccc12", "F"),
    ("COc1ccc2c(c1)C(=O)C1(C2)[C@H](c2ccccc2)C2C(=O)c3cc(OC)ccc3C2[C@H]1c1ccccc1 (stereo partly specified)", "F"),
    ("CCOC(=O)C1(Cc2ccccc2)Cc2cc3c(cc2C1=O)CCC3 (stereo unspecified)", "F"),
    ("CC1(C)OC(CCO)CN1C(=O)OCc1ccccc1 (stereo unspecified)", "F"),
    ("CN(C)c1ccc(-c2c(C#N)c(O)n(NS(=O)(=O)c3ccccc3)c(=O)c2C#N)cc1", "F"),
    ("CCOC(=O)CC(c1ccccc1)C(C)(C(=O)OCC)C(=O)OCC (stereo unspecified)", "F"),
    ("Cc1c2ccccc2cc2nc3ccccc3n12", "F"),
    ("CCCCN=C(OC1C=CCCC1)SC (stereo unspecified)", "F"),
    ("NCCc1ccc2c(c1)C(=O)c1c(O)ccc(O)c1C2=O", "F"),
]

Numbers sourced from ChEMBL document CHEMBL1201862.
